assay: Primary qHTS to identify inhibitors of SARS-CoV-2 cell entry (AID 1645846); conditions: SARS-CoV-2 pseudovirus cell entry assay, luminescence; at 57.1 µM (top of the series) unless noted
Records with an inconclusive call do not appear.
Below: a set of entries, each annotated with reported activity change, negative = inhibition.

# molecule, units label, activity change, negative = inhibition
data = [
    ("COc1ccc(COc2ccc(Cc3cnc(N)nc3N)cc2OC)cc1", "%", -52.5),
    ("O=c1oc2c(C3OCCCO3)c(O)ccc2c2c1CNCC2", "%", 1.62),
    ("O=C(COCC(=O)N1CCN(C(c2ccccc2)c2ccccc2)CC1)Nc1ccc(Cl)cc1C(=O)O", "%", -0.414),
    ("COc1ccc(Oc2cc(NCCC(F)(F)F)c3ncc(-c4ccc(C(=O)NC5CC5)c(C)c4)n3n2)c(F)c1F", "%", -12.1),
    ("CC(Nc1ncnc2nc[nH]c12)c1cc2cccc(Cl)c2c(=O)n1-c1ccccc1 (stereo unspecified)", "%", -36.2),
    ("O=C(NNc1ccccc1)c1ccncc1", "%", -19.4),
    ("NC(=O)[C@@H]1C[C@]2(NC(=O)NC2=O)c2cc(F)ccc2O1", "%", -14.3),
    ("CCCNC(=O)c1cn2ncnc(Nc3cc(C(=O)NC4CC4)ccc3C)c2c1C", "%", -27.9),
    ("Cc1ncc(COP(=O)(O)O)c(C)c1O", "%", -31.2),
    ("Cc1c[nH]c(/C=C2\\C(=O)Nc3ccccc32)c1CCC(=O)O", "%", -20.8),
    ("CNC(=O)Cn1cc(-c2ccc3c(c2)C(F)CC32NC(=O)N(CC(=O)N(Cc3ccc(F)cc3)C(C)C(F)(F)F)C2=O)cn1 (stereo unspecified)", "%", -52.5),
    ("CC[C@H](C)[C@@H]([C@@H](CC(=O)N1CCC[C@H]1[C@H](OC)[C@@H](C)C(=O)N[C@@H](Cc1ccccc1)c1nccs1)OC)N(C)C(=O)[C@@H](NC(=O)[C@H](C(C)C)N(C)C)C(C)C", "%", -79.3),
    ("O=C(/C=C/c1cccnc1)NCCCCC1CCN(C(=O)c2ccccc2)CC1", "%", -96.7),
    ("CC(=NNC(=O)c1cccc(S(=O)(=O)N2CCOCC2)c1)c1cc(Cl)ccc1O", "%", -7.45),
    ("COc1cc(C(=O)NC2CCN(C)CC2)c(F)cc1Nc1ncc2c(n1)N(C1CCCC1)CC(F)(F)C(=O)N2C", "%", -99.3),
    ("Cn1cc(-c2cnc3ccc4ccc(CS(=O)(=O)NCc5ccccn5)cc4c(=O)c3c2)cn1", "%", -59.2),
    ("CC(=O)N1CCN(c2ccc(NC(=O)Cc3cnc(-c4ccnc(F)c4)c(C)c3)nc2)CC1", "%", 0.388),
    ("CC(C)(C)C(=O)CN1C(=O)[C@H](NC(=O)Nc2cccc(C(=O)O)c2)CN(C2CCCCC2)c2ccccc21", "%", -4.52),
    ("Fc1ccc(-c2nc(-c3ccccc3F)[nH]c2-c2ccncc2)cc1", "%", -6.32),
    ("Cc1ccccc1-c1cc(N2CCN(C)CC2)ncc1N(C)C(=O)C(C)(C)c1cc(C(F)(F)F)cc(C(F)(F)F)c1", "%", 3.24),
    ("Cc1cc(OCc2nnc(SC3CCCC3)n2-c2cccnc2)ccc1-c1ccc(S(C)(=O)=O)cc1", "%", -22.4),
    ("CCCN(CC)C(CC)C(=O)Nc1c(C)cccc1C (stereo unspecified)", "%", -22.8),
    ("CCCCCC(O)/C=C/[C@@H]1C(CCCCCCC(=O)O)C(=O)C[C@@H]1O (stereo partly specified)", "%", -20.3),
]

Just for reference, PubChem BioAssay (NCATS) is where these values come from.
